Recorded EC50 values for a group of binders are listed next.
Molecular target: T1, human CD47 (hCD47) expressed on cells (human, UniProt Q08722 19-323)
T1 construct: Transfected CHO cells or endogenous CD47 of human cells; also called CHO-hCD47; CD47 on Raji cells
Assay: flow cytometry, Raji cells
PROPERTY: EC50

BINDER: h20-H4-L5Y (candidate 20.30), hIgG4-S228P (antibody, V domains shown, also called H20-VH4-VL5,Y) VH: QVQLVQSGAEVKKPGSSVKVSCKASGYSFTDYYINWVRQAPGQGLEWMGRIYPGIGNTYYNKKFKGRVTITADKSTSTAYMELSSLRSEDTAVYYCARGHYGRGMDYWGQGTTVTVSS VL: DIVMTQSPDSLAVSLGERATINCKSSQSLLNSIDQKNYLAWYQQKPGQPPKLLIYYASTKESGVPDRFSGSGSGTDFTLTISGLQAEDVAVYFCQQHYSTPWTFGGGTKVEIRR
VAL: 0.105 µg/mL
--
BINDER: h20-H4-L4Y (candidate 20.29), hIgG4-S228P (antibody, V domains shown, also called H20-VH4-VL4,Y) VH: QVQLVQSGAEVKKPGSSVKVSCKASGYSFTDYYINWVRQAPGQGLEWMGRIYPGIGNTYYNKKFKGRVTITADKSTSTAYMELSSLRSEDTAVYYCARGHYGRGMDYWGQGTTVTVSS VL: DIVMTQSPDSLAVSLGERATINCKSSQSLLNSIDQKNYLAWYQQKPGQPPKLLIYYASTKESGVPDRFSGSGSGTDFTLTISSLQAEDVAVYFCQQHYSTPWTFGGGAKVEIKR
VAL: 0.147 µg/mL
--
BINDER: h20-H2-L5Y (candidate 20.26), huIgG4_S228P format (antibody, V domains shown, also called H20-VH2-VL5,Y; h2O-H2L5Y) VH: QVQLVQSGAEVKKPGASVKVSCKASGYSFTDYYINWVRQAPGQGLEWMGRIYPGIGNTYYNKKFKGRVTITRDTSASTAYMELSSLRSEDTAVYYCARGHYGRGMDYWGQGTLVTVSS VL: DIVMTQSPDSLAVSLGERATINCKSSQSLLNSIDQKNYLAWYQQKPGQPPKLLIYYASTKESGVPDRFSGSGSGTDFTLTISGLQAEDVAVYFCQQHYSTPWTFGGGTKVEIRR
VAL: 0.0975 µg/mL
